Each item that follows carries a reported Inhibition of the binding of indicated biotin-Mab to sGPC3 core (%).
# MEASUREMENT TARGET: T1, soluble form of GPC3 core protein (human, UniProt P51654 25-563)
# T1 construct: not shown: His tag added to the C-terminus
# T1 sequence (P51654 25-563 S495A/S509A, form in doubt): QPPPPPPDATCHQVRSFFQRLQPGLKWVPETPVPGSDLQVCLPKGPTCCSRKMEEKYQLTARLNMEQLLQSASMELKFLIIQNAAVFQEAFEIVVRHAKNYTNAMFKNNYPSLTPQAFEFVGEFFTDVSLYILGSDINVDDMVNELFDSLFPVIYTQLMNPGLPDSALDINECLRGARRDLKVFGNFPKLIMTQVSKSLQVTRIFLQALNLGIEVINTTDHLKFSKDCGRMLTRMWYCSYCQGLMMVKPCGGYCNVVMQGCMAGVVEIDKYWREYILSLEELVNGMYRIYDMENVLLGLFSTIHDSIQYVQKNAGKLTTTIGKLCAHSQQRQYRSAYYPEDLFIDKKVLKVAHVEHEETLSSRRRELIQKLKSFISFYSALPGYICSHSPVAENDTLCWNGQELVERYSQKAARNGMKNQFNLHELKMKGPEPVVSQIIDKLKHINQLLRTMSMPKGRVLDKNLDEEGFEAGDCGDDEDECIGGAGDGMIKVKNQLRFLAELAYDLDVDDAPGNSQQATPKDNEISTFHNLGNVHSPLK
# PROTOCOL TEXT: competitive ELISA on coated soluble GPC3 core protein; labelled competitor biotin-M18D4;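 further: Biotin-labelled antibody added as 10 µL at 10 µg/mL for 1 h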
VALUE KIND: Inhibition of the binding of indicated biotin-Mab to sGPC3 core (%)

- BINDER: "M6B1 (antibody, V domains shown, Mouse monoclonal from hybridoma) VH: EVQLVESGGDLVKPGGSLKLSCAASGFTFSSYAMSWVRQTPEKRLEWVAAINSNGGTTYYPDTMKDRFTISRDNAKNTLYLQMSSLRSEDSALYYCTRHNGGYENYGWFAYWGQGTLVTVSA VL: DIQMTQSPSSLSASLGGKVTITCKASQDINKNIIWYQHKPGKGPRLLIWYTSTLQPGIPSRFSGSGSGRDYSFSISNLEPEDIATYYCLQYDNLPRTFGGGTKLEIK"
  REPORTED VALUE: "51.9%"
- BINDER: "M11F1 (antibody, V domains shown, Mouse monoclonal from hybridoma) VH: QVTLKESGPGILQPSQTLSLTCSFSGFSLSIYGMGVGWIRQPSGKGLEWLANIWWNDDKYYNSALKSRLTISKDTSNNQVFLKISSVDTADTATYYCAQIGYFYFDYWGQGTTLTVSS VL: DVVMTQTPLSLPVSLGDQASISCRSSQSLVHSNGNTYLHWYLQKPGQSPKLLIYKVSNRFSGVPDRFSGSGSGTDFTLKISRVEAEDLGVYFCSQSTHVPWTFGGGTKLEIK"
  REPORTED VALUE: "-1.5%"
- BINDER: "M18D4 (antibody, human IgG1, kappa, V domains shown, Mouse monoclonal from hybridoma) VH: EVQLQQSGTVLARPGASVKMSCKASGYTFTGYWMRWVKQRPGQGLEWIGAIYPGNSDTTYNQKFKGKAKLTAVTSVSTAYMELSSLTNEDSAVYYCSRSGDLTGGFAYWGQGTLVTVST VL: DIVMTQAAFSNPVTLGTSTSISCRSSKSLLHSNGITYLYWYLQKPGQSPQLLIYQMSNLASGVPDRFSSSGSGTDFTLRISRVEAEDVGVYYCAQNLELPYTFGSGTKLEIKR"
  REPORTED VALUE: "89%"
